Where do these numbers come from? They come from patent US20160346402A1.

Target: T1, TPP-2305, hTNFRSF12 amino acids a28-80 (recombinant human TWEAKR protein) (human, UniProt Q9NP84 28-80)
T1 construct: Soluble monomeric antigen, injected as analyte over the captured antibodies; Bought protein
Assay: SPR (Biacore T100), antibody captured, TWEAKR TPP-2305 as analyte, 1:1 model
From the text: The antibodies were immobilized on a CM5 sensor chip using an indirect capture reagent, anti-human IgG(Fc). Reagents of the “Human Antibody Capture Kit” (BR-1008-39, GE Healthcare Biacore, Inc.) were used as described by the manufacturer. Sensorgrams were generated after in-line reference cell correction, followed by subtraction of the buffer sample. […]
READOUT KIND: kon (M⁻¹ s⁻¹)
Only the number, expressed in M⁻¹ s⁻¹, is required.

TPP-2149 (antibody, human IgG1, kappa, V domains shown, human IgG1) VH: EVQLLESGGGLVQPGGSLRLSCAASGFTFSPYPMIWVRQAPGKGLEWVSYISPSGGKTHYADSVKGRFTISRDNSKNTLYLQMNSLRAEDTAVYYCARGGDTYFDYFDYWGQGTLVTVSS VL: DIQMTQSPATLSASVGDRVTITCRASQSISGYLNWYQQKPGKAPKLLIYQASSLQSGVPSRFSGSGSGTDFTLTISSLQPEDFATYYCQQSYTSPFITFGPGTKVEIKR	8.4e+06
P4A8(TPP-1324) (antibody, human IgG1, kappa, V domains shown, Comparative antibody, human IgG1; variable domains from WO2009/140177 with added constant regions) VH: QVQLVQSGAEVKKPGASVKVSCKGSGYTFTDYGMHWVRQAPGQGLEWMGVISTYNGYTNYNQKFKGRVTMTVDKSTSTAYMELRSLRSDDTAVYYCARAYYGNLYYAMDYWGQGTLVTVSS VL: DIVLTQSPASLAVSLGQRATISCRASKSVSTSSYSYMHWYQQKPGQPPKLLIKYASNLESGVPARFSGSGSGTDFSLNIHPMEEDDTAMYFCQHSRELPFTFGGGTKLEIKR	1.2e+06
TPP-883 (antibody, human IgG1, kappa, V domains shown, human IgG1) VH: EVQLLESGGGLVQPGGSLRLSCAASGFTFSPYPMMWVRQAPGKGLEWVSYISPSGGKTHYADSVKGRFTISRDNSKNTLYLQMNSLRAEDTAVYYCARGGDGYFDYFDYWGQGTLVTVSS VL: DIQMTQSPATLSASVGDRVTITCRASQSISSYLNWYQQKPGKAPKLLIYAASSLQSGVPSRFSGSGSGTDFTLTISSLQPEDFATYYCQQSYSSPGITFGPGTKVEIKR	4.4e+06
TPP-2148 (antibody, human IgG1, kappa, V domains shown, human IgG1) VH: EVQLLESGGGLVQPGGSLRLSCAASGFTFSPYPMMWVRQAPGKGLEWVSYISPSGGKTHYADSVKGRFTISRDNSKNTLYLQMNSLRAEDTAVYYCARGGDTYFDYFDYWGQGTLVTVSS VL: DIQMTQSPATLSASVGDRVTITCRASQSISSYLNWYQQKPGKAPKLLIYQASSLQSGVPSRFSGSGSGTDFTLTISSLQPEDFATYYCQQSYTSPFITFGPGTKVEIKR	5.1e+06

Alright, here's another binder for you.
Ask | Supply reported kon belonging to this binder: TPP-2093 (antibody, human IgG1, kappa, V domains shown, human IgG1) VH: EVQLLESGGGLVQPGGSLRLSCAASGFTFSPYPMMWVRQAPGKGLEWVSYISPSGGSTHYADSVKGRFTISRDNSKNTLYLQMNSLRAEDTAVYYCARGGDTYFDYFDYWGQGTLVTVSS VL: DIQMTQSPSSLSASVGDRVTITCRASQSISSYLNWYQQKPGKAPKLLIYQASSLQSGVPSRFSGSGSGTDFTLTISSLQPEDFATYYCQQSYTSPFITFGQGTKVEIKR
Reply | 4.1e+06
